measured.on: T1, FIP200 Claw Y1564S (human)
T1 chain: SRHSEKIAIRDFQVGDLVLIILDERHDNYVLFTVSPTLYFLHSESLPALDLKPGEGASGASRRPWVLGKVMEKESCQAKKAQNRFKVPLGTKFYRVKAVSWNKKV
procedure.text: FP

# binder, Kd / µM
records = [
    ("TASDDSDIVTLEPPK (domain or fragment) [CCPG1 FIR2 (residues 99–113), recombinant]", 79.5),
]
